Data origin: PubChem BioAssay

protocolSummary: nonspecific calcium rise without TRPC4 – cell-based, HEK293 mu-opioid receptor line, counter-screen for TRPC4 activator project, confirmation (AID 449723);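 note: counter screen cells carry the mu-opioid receptor alone and lack TRPC4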; for activation: reference of the scale not given here
conditionContext: HEK293 mu-opioid cells, Fluo-4 calcium fluorescence, at 10 µM; stronger effect = higher value
Calls of active or inactive are those of the source.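 Rule for the calls: active = hit in primary screen, with calcium signal over 5 SD above buffer well mean in both duplicates; inactive = the rest.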
outcomeMeasure: activation

>>> print(df.to_string())
                                    compound  measvalue
 0    O=C(Cn1c(NCCCO)nc2ccccc21)c1ccc(Br)cc1   inactive
 1  COc1cc2c(cc1OC)C(C)N(CCc1ccc(Cl)cc1)CC2 (stereo unspecified)   inactive
 2  CN1CCN(c2ccc(S(=O)(=O)N3CCCCC3)cc2NC(=O)c2ccc(F)cc2F)CC1   inactive
 3  O=C(NCC(c1ccco1)N1CCc2ccccc2C1)c1ccc(F)cc1 (stereo unspecified)   inactive
 4  COc1ccc(CCn2c(N)c(C#N)c3nc4ccccc4nc32)cc1OC   inactive
 5  O=[N+]([O-])c1ccc(CN2CCN(c3nc4ccccc4s3)CC2)cc1   inactive
 6                 OCCCNc1c2ccccc2nc2ccccc12   inactive
 7    COC(=O)c1cccc(NC(=S)Nc2cccc(Cl)c2Cl)c1   inactive
 8  CC(=O)c1c(C)nn(CC(=O)NC2CCCN(Cc3ccc(CC(C)C)cc3)C2)c1C (stereo unspecified)   inactive
 9   CC(C)CCc1noc(CN2CCN(c3ccc(Cl)cn3)CC2)n1   inactive
10  CCc1cccc(OCC(=O)Nc2ccc(C(=O)O)cc2NC(=O)COc2cccc(CC)c2)c1   inactive

====

protocolSummary: nonspecific calcium rise without TRPC4 – cell-based, HEK293 mu-opioid receptor line, counter-screen for TRPC4 activator project, confirmation (AID 449723);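 note: counter screen cells carry the mu-opioid receptor alone and lack TRPC4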
conditionContext: HEK293 mu-opioid cells, Fluo-4 calcium fluorescence, at 10 µM
The source made the active and inactive calls.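 The calls were made as follows: active = hit in primary screen, with calcium signal over 5 SD above buffer well mean in both duplicates; inactive = the rest.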
Labels: Y (active), N (inactive)

                                    compound  class
 0  C=CCn1c(SCCN2CCCC2)nc2c([nH]c3ccccc32)c1=O      N
 1     Cc1cc(C)c(S(=O)(=O)N2CCN(C)CC2)c(C)c1      N
 2  CC1CC(C)CN(CCCNC(=O)Cn2cccc2C(=O)c2ccccc2)C1 (configuration not stated)      N
 3  COC(=O)[C@@]12CCCCN1[C@H](c1ccc(-c3ccc(C(C)=O)cc3)cc1)[C@@H]1C(=O)N(C)C(=O)[C@@H]12      N
 4  CCCCC(CC)C(=O)Nc1ncc([N+](=O)[O-])s1 (configuration not stated)      N
 5  CCOc1ccc(-n2c(C)cc(/C=C3/C(=N)N4C(=NC3=O)SN=C4S(C)(=O)=O)c2C)cc1      N
 6  O=C(NC1CC1)c1ccc2c(c1)N(Cc1ccc(Cl)cc1)CCS2      N
 7  O=C(Nc1cnn(C23CC4CC(CC(C4)C2)C3)c1)c1cnn2cccnc12      N
 8  C=CCNC(=O)C(=O)NCC1CCCN1S(=O)(=O)c1cccs1 (configuration not stated)      N
 9    Oc1ccc(-c2[nH]ncc2-c2ccc(Br)cc2)c(O)c1      N
10         c1ccc2c(c1)[nH]c1c(N3CCCC3)ncnc12      N
11  CCOC(=O)C1(CCOC)CCN(C(C)CCc2ccc(OC)cc2)CC1 (configuration not stated)      N
12  CCCC1=C(C(=O)OCC)C(c2cc(Cl)cc(OC)c2OCC(=O)OCC)NC(=O)N1 (configuration not stated)      N
13  O=C(Nc1ccccc1Oc1cccnc1)C1CCCN(Cc2ccc(F)cc2)C1 (configuration not stated)      N
14             Cc1cc(C)nc(NC(N)=NC2CCCCC2)n1      N
15  Cn1c(N2CCC(C(N)=O)CC2)nc2c1c(=O)n(Cc1ccc(Br)cc1)c(=O)n2C      N
16   COCCn1c(SCc2ccc(OC)c(F)c2)nc2ccccc2c1=O      N
17  Cc1ccc(NC(=O)Nc2cccc([N+](=O)[O-])c2)nc1      N
18  COc1ccccc1C(=O)NNC1=C(C(=O)C(F)(F)F)CCC1      N
19  CC[C@@H](C)[C@H](CNC)NC[C@@H](Cc1cccc2ccccc12)NCCc1cccc(C(F)(F)F)c1      Y
20  CCN1CCN(c2ccc(S(=O)(=O)N3CCOCC3)cc2NC(=O)c2ccccc2OC(F)F)CC1      N
21                COCCNc1c2c(nc3ccccc13)CCC2      N
